Provide the recorded pIC50 for the entries that follow.
system: K562; test: PROLiFiler-Cell Panel Screening (CellTiterGlo); format: cell-based; conditions: Homo sapiens; Blood, K562, 72 hours
Numbers only, as −log10 of the molar value.

| COMPOUND | pIC50 |
| --- | --- |
| CCCOc1c2cccc1Cc1cccc(c1OCc1nccn1C)Cc1cccc(c1OCCC)Cc1cccc(c1OCc1nccn1C)C2 | 5.72 |

# evaluate next
Q: Return pIC50 (reported value) for this compound: CC(C)C[C@H](NC(=O)[C@H](Cc1ccccc1)NC(=O)c1cnccn1)B(O)O [bortezomib, reference compound]
A: 7.84

* * *

tested on: SW948; assay: PROLiFiler-Cell Panel Screening (CellTiterGlo); type: cell-based; conditions: Homo sapiens; Colon, SW948, 72 hours
Task for the reader: assign each of the following compounds its reported IC50.
Give bare numbers, in nM.

| COMPOUND | IC50 (nM) |
| --- | --- |
| CC(C)C[C@H](NC(=O)[C@H](Cc1ccccc1)NC(=O)c1cnccn1)B(O)O [bortezomib, reference compound] | 8.88 |

Now consider the entry below.
Q: # return recorded IC50 for entry CCCOc1c2cccc1Cc1cccc(c1OCc1nccn1C)Cc1cccc(c1OCCC)Cc1cccc(c1OCc1nccn1C)C2
A: 2150

* * *

Please provide measured IC50 for the entries that follow.
tested on: Hepatocellular carcinoma (HepG2/C3A) cells; assay: MTT cytotoxicity assay (DL50); type: cell-based; settings: 24 hours of incubation
The number alone won't do; follow it with the unit.

| MOLECULE | RESULT |
| --- | --- |
| C=CCOc1c2cccc1Cc1cccc(c1OCc1nccn1C)Cc1cccc(c1OCC=C)Cc1cccc(c1OCc1nccn1C)C2 [(3)] | 4.5 µM |
| CCOC(=O)COc1c2cccc1Cc1cccc(c1OCc1nccn1C)Cc1cccc(c1OCC(=O)OCC)Cc1cccc(c1OCc1nccn1C)C2 [(4)] | 3.1 µM |
| CCCOc1c2cccc1Cc1cccc(c1OCc1nccn1C)Cc1cccc(c1OCCC)Cc1cccc(c1OCc1nccn1C)C2 [formula (2)] | 3.1 µM |
| CCCOc1c2cc([N+](=O)[O-])cc1Cc1cccc(c1OCc1nccn1C)Cc1cc([N+](=O)[O-])cc(c1OCCC)Cc1cccc(c1OCc1nccn1C)C2 [(7)] | 10.9 µM |
| CCCOc1c2cccc1Cc1cccc(c1OCc1ncco1)Cc1cccc(c1OCCC)Cc1cccc(c1OCc1ncco1)C2 [(9)] | 70 µM |
| Cn1ccnc1COc1c2cccc1Cc1cccc(c1O)Cc1cccc(c1OCc1nccn1C)Cc1cccc(c1O)C2 [(6)] | 20.7 µM |

Q: Please list IC50 recorded for the molecule CCCOc1c2cccc1Cc1cccc(c1OCCC)Cc1cccc(c1OCCC)Cc1cccc(c1OCCC)C2 [(XI)]
A: 184 µM

* * *

Exercise: for every item that follows, state its recorded IC50.
tested on: HCC 1569; assay: PROLiFiler-Cell Panel Screening (CellTiterGlo); assay type: cell-based; details: Homo sapiens, HCC1569; Breast, HCC 1569, 72 hours
Give bare numbers, in nM.

| COMPOUND | IC50 [nM] |
| --- | --- |
| CC(C)C[C@H](NC(=O)[C@H](Cc1ccccc1)NC(=O)c1cnccn1)B(O)O [bortezomib, reference compound] | 5.15 |

Q: Supply reported IC50 belonging to this compound: CCCOc1c2cccc1Cc1cccc(c1OCc1nccn1C)Cc1cccc(c1OCCC)Cc1cccc(c1OCc1nccn1C)C2 [(2)]
A: 2960

* * *

system: SW-1783; assay: PROLiFiler-Cell Panel Screening (CellTiterGlo); format: cell-based; conditions: Homo sapiens, SW1783; Brain, SW-1783, 72 hours
I'd appreciate it if you could supply IC50 values for the items below.
One number for each entry, in nM.

| COMPOUND | READOUT_NAME | NUMERIC_VALUE |
| --- | --- | --- |
| CC(C)C[C@H](NC(=O)[C@H](Cc1ccccc1)NC(=O)c1cnccn1)B(O)O [bortezomib, reference compound] | IC50 | 8.6 |

Q: Consider the compound CCCOc1c2cccc1Cc1cccc(c1OCc1nccn1C)Cc1cccc(c1OCCC)Cc1cccc(c1OCc1nccn1C)C2 [(2)] tested on SW-1783; state its IC50.
A: 3380

* * *

tested on: A498; assay: PROLiFiler-Cell Panel Screening (CellTiterGlo); format: cell-based; settings: Homo sapiens; Kidney, A498, 72 hours
READOUT_NAME: IC50 (nM)
Numbers only, in nM.

| MOLECULE | ASSAY_SYSTEM | IC50 (nM) |
| --- | --- | --- |
| CCCOc1c2cccc1Cc1cccc(c1OCc1nccn1C)Cc1cccc(c1OCCC)Cc1cccc(c1OCc1nccn1C)C2 | A498 | 1720 |

Q: Quick one: give measured IC50 for CC(C)C[C@H](NC(=O)[C@H](Cc1ccccc1)NC(=O)c1cnccn1)B(O)O [bortezomib, reference compound]
A: 4.53

* * *

tested on: LnCap; experiment: PROLiFiler-Cell Panel Screening (CellTiterGlo); type: cell-based; settings: Homo sapiens, Prostate, 72 hours
For each of the compounds below, state its IC50.
Numbers only, in µM.

| COMPOUND | NUMERIC_VALUE |
| --- | --- |
| CC(C)C[C@H](NC(=O)[C@H](Cc1ccccc1)NC(=O)c1cnccn1)B(O)O [bortezomib, reference compound] | 0.0141 |

Continue with the compound presented below.
Q: Provide measured IC50 value, entry: CCCOc1c2cccc1Cc1cccc(c1OCc1nccn1C)Cc1cccc(c1OCCC)Cc1cccc(c1OCc1nccn1C)C2
A: 1.19

* * *

Would you kindly list IC50 for each of these compounds?
tested on: BEN; assay: PROLiFiler-Cell Panel Screening (CellTiterGlo); assay type: cell-based; conditions: Lung, 72 hours
One number for each entry, in µM.

| COMPOUND | READOUT_NAME | NUMERIC_VALUE |
| --- | --- | --- |
| CCCOc1c2cccc1Cc1cccc(c1OCc1nccn1C)Cc1cccc(c1OCCC)Cc1cccc(c1OCc1nccn1C)C2 | IC50 | 3.68 |

Q: Read the entry CC(C)C[C@H](NC(=O)[C@H](Cc1ccccc1)NC(=O)c1cnccn1)B(O)O [bortezomib, reference compound] and write its reported IC50.
A: 0.0531

* * *

test system: DV90; experiment: PROLiFiler-Cell Panel Screening (CellTiterGlo); assay type: cell-based; conditions: Homo sapiens, DV-90; Lung, DV90, 72 hours
READOUT_NAME: pIC50
Give bare numbers, as −log10 of the molar value.

| MOLECULE | ASSAY_SYSTEM | pIC50 |
| --- | --- | --- |
| CC(C)C[C@H](NC(=O)[C@H](Cc1ccccc1)NC(=O)c1cnccn1)B(O)O [bortezomib, reference compound] | DV90 | 8.13 |

Proceed to the following item.
Q: Please tell me the measured pIC50 for CCCOc1c2cccc1Cc1cccc(c1OCc1nccn1C)Cc1cccc(c1OCCC)Cc1cccc(c1OCc1nccn1C)C2 [(2)] ; system: DV90.
A: 5.67

* * *

system: HCT-15; experiment: PROLiFiler-Cell Panel Screening (CellTiterGlo); type: cell-based; settings: Homo sapiens; Colon, HCT-15, 72 hours
I'd appreciate it if you could supply IC50 values for the items below.

| MOLECULE | IC50 |
| --- | --- |
| CCCOc1c2cccc1Cc1cccc(c1OCc1nccn1C)Cc1cccc(c1OCCC)Cc1cccc(c1OCc1nccn1C)C2 [(2)] | 2020 nM |

Could you now consider this next molecule?
Q: Please report the measured IC50 for CC(C)C[C@H](NC(=O)[C@H](Cc1ccccc1)NC(=O)c1cnccn1)B(O)O [bortezomib, reference compound] tested on HCT-15.
A: 9.25 nM

* * *

Test system: SNU840
Assay: PROLiFiler-Cell Panel Screening (CellTiterGlo)
Assay type: cell-based
Conditions: SNU-840; Ovary, SNU840, 72 hours
Method: For the assays, cells were seeded in white cell culture-treated flat and clear bottom 384-well multiwall plates and incubated at 37° C. overnight before the calix[4]arene of the formula (2) or the reference compound were added. […]
Would you kindly list IC50 for each of these compounds?
One number for each entry, in nM.

| COMPOUND | ASSAY_SYSTEM | IC50, nM |
| --- | --- | --- |
| CC(C)C[C@H](NC(=O)[C@H](Cc1ccccc1)NC(=O)c1cnccn1)B(O)O [bortezomib, reference compound] | SNU840 | 5.89 |

Q: Provide IC50 value for the following compound: CCCOc1c2cccc1Cc1cccc(c1OCc1nccn1C)Cc1cccc(c1OCCC)Cc1cccc(c1OCc1nccn1C)C2
A: 1150

* * *

system: KARPAS 299; assay: PROLiFiler-Cell Panel Screening (CellTiterGlo); format: cell-based; conditions: Homo sapiens; Blood, KARPAS 299, 72 hours
READOUT_NAME: IC50 (nM)
One number for each entry, in nM.

| COMPOUND | NUMERIC_VALUE |
| --- | --- |
| CCCOc1c2cccc1Cc1cccc(c1OCc1nccn1C)Cc1cccc(c1OCCC)Cc1cccc(c1OCc1nccn1C)C2 [(2)] | 1480 |

Now consider a different compound.
Q: Return IC50 for the following compound: CC(C)C[C@H](NC(=O)[C@H](Cc1ccccc1)NC(=O)c1cnccn1)B(O)O [bortezomib, reference compound]
A: 3.96
